Test system: Sporosarcina ureae
Experiment: Antimicrobial activity against Sarcina ureae after 24 hrs by two fold serial microdilution method
Assay type: functional
Structures can show the parent of a compound that is named as a salt.
reportedEndpoint: MIC

[[record]]
compound = "CN[C@@H]1[C@H](O[C@H]2[C@H](O[C@H]3[C@H](O)[C@@H](O)[C@H](N=C(N)N)[C@@H](O)[C@@H]3N=C(N)N)O[C@@H](C)[C@]2(O)C=O)O[C@@H](CO)[C@H](O)[C@H]1O [STREPTOMYCIN SULFATE]"
targetundertest = "Sporosarcina ureae"
reportedendpoint = "MIC"
result = "2.14 µM"

[[record]]
compound = "c1cc(CSc2cccc3cccnc23)nc(CSc2cccc3cccnc23)c1"
targetundertest = "Sporosarcina ureae"
reportedendpoint = "MIC"
result = "> 117 µM"

[[record]]
compound = "c1ccc(CSc2cccc3cccnc23)nc1"
targetundertest = "Sporosarcina ureae"
reportedendpoint = "MIC"
result = "> 198 µM"

[[record]]
compound = "c1cnc2c(SCc3ccncc3)cccc2c1"
targetundertest = "Sporosarcina ureae"
reportedendpoint = "MIC"
result = "> 198 µM"

[[record]]
compound = "c1cncc(CSc2cccc3cccnc23)c1"
targetundertest = "Sporosarcina ureae"
reportedendpoint = "MIC"
result = "> 198 µM"

[[record]]
compound = "CC1(C)S[C@@H]2[C@H](NC(=O)[C@H](N)c3ccccc3)C(=O)N2[C@H]1C(=O)O [AMPICILLIN]"
targetundertest = "Sporosarcina ureae"
reportedendpoint = "MIC"
result = "17.4 µM"


====

Property: MIC; scope: individual compounds
Test system: Pseudomonas aeruginosa
Test: Antimicrobial activity against Pseudomonas aeruginosa after 24 hrs by two fold serial microdilution method
Assay type: functional
Structures can show the parent of a compound that is named as a salt.
reportedEndpoint: MIC

[[record]]
compound = "c1ccc(CSc2cccc3cccnc23)nc1"
reportedendpoint = "MIC"
result = "> 198 µM"

[[record]]
compound = "CN[C@@H]1[C@H](O[C@H]2[C@H](O[C@H]3[C@H](O)[C@@H](O)[C@H](N=C(N)N)[C@@H](O)[C@@H]3N=C(N)N)O[C@@H](C)[C@]2(O)C=O)O[C@@H](CO)[C@H](O)[C@H]1O [STREPTOMYCIN SULFATE]"
reportedendpoint = "MIC"
result = "1.07 µM"

[[record]]
compound = "c1cnc2c(SCc3ccncc3)cccc2c1"
reportedendpoint = "MIC"
result = "> 198 µM"

[[record]]
compound = "c1cncc(CSc2cccc3cccnc23)c1"
reportedendpoint = "MIC"
result = "> 198 µM"

[[record]]
compound = "CC1(C)S[C@@H]2[C@H](NC(=O)[C@H](N)c3ccccc3)C(=O)N2[C@H]1C(=O)O"
reportedendpoint = "MIC"
result = "17.4 µM"

[[record]]
compound = "c1cc(CSc2cccc3cccnc23)nc(CSc2cccc3cccnc23)c1"
reportedendpoint = "MIC"
result = "> 117 µM"


====

Property: MIC; scope: individual compounds
Tested on: Staphylococcus aureus
Test: Antimicrobial activity against Staphylococcus aureus ATCC 27154 after 24 hrs by two fold serial microdilution method
Format: functional
Conditions: ATCC 27154, 24 h
Structures can show the parent of a compound that is named as a salt.
reportedEndpoint: MIC

[[record]]
compound = "c1cncc(CSc2cccc3cccnc23)c1"
result = "> 198 µM"

[[record]]
compound = "CC1(C)S[C@@H]2[C@H](NC(=O)[C@H](N)c3ccccc3)C(=O)N2[C@H]1C(=O)O [AMPICILLIN]"
result = "69.4 µM"

[[record]]
compound = "c1ccc(CSc2cccc3cccnc23)nc1"
result = "> 198 µM"

[[record]]
compound = "CN[C@@H]1[C@H](O[C@H]2[C@H](O[C@H]3[C@H](O)[C@@H](O)[C@H](N=C(N)N)[C@@H](O)[C@@H]3N=C(N)N)O[C@@H](C)[C@]2(O)C=O)O[C@@H](CO)[C@H](O)[C@H]1O [STREPTOMYCIN SULFATE]"
result = "1.07 µM"

[[record]]
compound = "c1cc(CSc2cccc3cccnc23)nc(CSc2cccc3cccnc23)c1"
result = "> 117 µM"

[[record]]
compound = "c1cnc2c(SCc3ccncc3)cccc2c1"
result = "> 198 µM"

